experimental.readout: melting point

Answered cases to consult:
{"columns": ["compound", "melting point"],
 "data": [
  ["CN1CCC(Oc2cccc(NC(=O)c3ccc(F)cc3F)n2)CC1.Cl (hydrate or solvate)", "269 to 271 °C"],
  ["CN1CCC(Oc2cccc(NC(=O)c3ccc(F)cc3)n2)CC1.Cl (hydrate or solvate)", "203 to 205 °C"],
  ["CN1CCC(Oc2cccc(NC(=O)c3ccccc3Cl)n2)CC1.Cl (hydrate or solvate)", "88 to 90 °C"]
]}

Lab book: melting point of CC1CN(C)CCC1Oc1cccc(NC(=O)c2ccc(F)cc2Cl)n1.Cl (stereo not shown) noted as 155 to 160 °C

Lab book: melting point of "CN1CCC(Oc2cccc(NC(=O)c3ccccc3OC(F)(F)F)c2)CC1.Cl" noted as 119 to 121 °C

Lab book: melting point of "CN1CCC(Oc2cccc(NC(=O)c3ccccc3OC(F)(F)F)n2)CC1.Cl" noted as 88.7 °C

Lab book: melting point of "CN1CCC(Oc2cccc(NC(=O)c3c(F)cc(F)cc3F)n2)CC1.Cl" noted as 264 to 266 °C

====

Catalogue of melting point readings, one per entry.

Answered cases to consult:
{"columns": ["compound", "melting point"],
 "data": [
  ["CN1CCC(Oc2cccc(NC(=O)c3c(F)cccc3F)n2)CC1.Cl", "261.4 °C"],
  ["CN1CCC(Oc2cccc(NC(=O)c3ccncc3)n2)CC1.Cl (hydrate or solvate)", "254 to 256 °C"],
  ["CN1CCC(Oc2cccc(NC(=O)c3cc(F)c(F)c(F)c3)n2)CC1.Cl", "171.4 °C (dec.)"],
  ["CN1CCC(Oc2cccc(NC(=O)c3ccc(F)cc3Cl)c2)CC1.Cl", "213 °C"],
  ["C[C@H]1C[C@@H](Oc2cccc(NC(=O)c3ccc(F)cc3Cl)c2)CCN1C.Cl (single isomer, unassigned)", "152 °C"]
]}

Lab book: melting point of "CN1CCC(Oc2cccc(NC(=O)c3c(F)cccc3Cl)c2)CC1.Cl" noted as 153 to 154 °C

Lab book: melting point of "CN1CCC(Oc2cccc(NC(=O)c3ccncc3)c2)CC1.Cl" noted as 172 to 175 °C

Lab book: melting point of "CN1CCC(Oc2cc(NC(=O)c3c(F)cccc3F)ccc2Cl)CC1.Cl" noted as 261 °C (dec.)

Lab book: melting point of "CN1CCC(Oc2cccc(NC(=O)c3c(F)cccc3F)c2)CC1.Cl" noted as 136 to 138 °C

Lab book: melting point of "CN1CCC(Oc2cc(NC(=O)c3c(F)cccc3Cl)ccc2Cl)CC1.Cl" noted as 259 to 260 °C

Lab book: melting point of "CC(C)C(=O)Nc1cccc(OC2CCN(C)CC2)c1.Cl" noted as 104 to 105 °C

====

experimental.readout: melting point

Answered cases to consult:
{"columns": ["molecule", "melting point"],
 "data": [
  ["CCN1CCC(Oc2cccc(NC(=O)c3ccc(F)cc3Cl)c2)CC1.Cl", "91 °C"],
  ["CN1CCC(Oc2cc(NC(=O)c3ccccc3Br)ccc2Cl)CC1.Cl", "146 to 148 °C"],
  ["CN1CCC(Oc2cccc(NC(=O)c3ccc(F)cc3Cl)n2)CC1.Cl (hydrate or solvate)", "135 to 137 °C"],
  ["C[C@H]1C[C@H](Oc2cccc(NC(=O)c3ccc(F)cc3Cl)c2)CCN1C.Cl (single isomer, unassigned)", "145 °C"],
  ["CN1CCC(Oc2cc(NC(=O)c3ccccc3OC(F)(F)F)ccc2Cl)CC1.Cl", "95 to 97 °C"]
]}

Lab book: melting point of "CN1CCC(Oc2cccc(NC(=O)c3c(F)cccc3Cl)n2)CC1.Cl" noted as 139.6 °C

Lab book: melting point of "CN1CCC(Oc2cccc(NC(=O)c3c(F)cc(F)cc3F)c2)CC1.Cl" noted as 136 °C (dec.)

====

Counter-ions that a name gives are not always drawn.
Catalogue of melting point readings, one per entry.

Lab book: melting point of "CN1CCC(Oc2cc(NC(=O)c3ccccc3Cl)ccc2Cl)CC1.Cl" noted as 259 °C (dec.)

Lab book: melting point of C[C@@H]1CN(C)CC[C@@H]1Oc1cccc(NC(=O)C2=CC=C(F)CC2Cl)n1 (single isomer, unassigned) (as salt: salt) noted as 238 °C

Lab book: melting point of "CN1CCC(Oc2cccc(NC(=O)c3ccccc3Br)n2)CC1.Cl" noted as 104.3 °C

Lab book: melting point of "CN1CCC(Oc2cc(NC(=O)c3c(F)cc(F)cc3F)ccc2Cl)CC1.Cl" noted as > 270 °C

Lab book: melting point of "CN1CCC(Oc2cccc(NC(=O)c3ccccc3Br)c2)CC1.Cl" noted as 269 °C (dec.)

Lab book: melting point of "CN1CCC(Oc2cccc(NC(=O)c3cccnc3)c2)CC1.Cl" noted as 73 to 74 °C
